# testedTarget: T1, human Claudin 18.1 (human, UniProt P56856 1-261)
# T1 construct: Overexpressed on HEK293A cells by lentivirus
# T1 sequence (P56856 whole entry): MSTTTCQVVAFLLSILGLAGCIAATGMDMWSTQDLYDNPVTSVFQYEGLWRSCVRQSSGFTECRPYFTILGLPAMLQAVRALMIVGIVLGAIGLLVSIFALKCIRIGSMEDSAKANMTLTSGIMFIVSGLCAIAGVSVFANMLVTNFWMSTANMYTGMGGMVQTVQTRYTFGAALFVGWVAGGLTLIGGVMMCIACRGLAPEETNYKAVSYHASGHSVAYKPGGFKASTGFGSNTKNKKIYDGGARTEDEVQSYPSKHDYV
# methodDescription: FACS on HEK293A/hClaudin 18.1 cells
readoutType: binding result

Consider the following illustrative entries.
Report binding result for 18F2-66VH2VL0 (antibody, human IgG1, kappa, V domains shown, Humanized, human IgG1/kappa constant regions) VH: QVQLVQSGAEVKKPGASVKVSCKASGYTFTSFWINWVRQAPGQGLEWIGNIYPSASYTVYNQKFKDRVTLTVDKSTSTVYMELSSLRSEDTAVYYCARTWRGNSFDLWGQGTTVTVSS VL: DIVMTQSPDSLAVSLGERATINCKSSQSLLNSGNQKNYVTWYQQKPGQPPKLLIYWSSTRSFGVPDRFSGSGSGTDFTLTISSLQAEDVAVYYCQNDYTYPFTFGQGTKLEIKR
no binding

Report binding result for 18F2-30-VH6VL0 (antibody, human IgG1, kappa, V domains shown, Humanized, human IgG1/kappa constant regions) VH: QVQLVQSGAEVKKPGASVKVSCKASGYTFTSFWLNWVRQRPGQGLEWIGNIYPSTSYTVYNQKFKDRVTLTVDKSSSTAYMELSSLTSEDTAVYYCTRTWRGNSFDYWGQGTTVTVSS VL: DIVMTQSPDSLAVSLGERATINCKSSQSLLNSGNQKNYVTWYQQKPGQPPKLLIYWGSTRSTGVPDRFSGSGSGTDFTLTISSLQAEDVAVYYCQNDYTYPFTFGQGTKLEIKR
no binding

Report binding result for 18F2-5VH3VL0 (antibody, human IgG1, kappa, V domains shown, Humanized, human IgG1/kappa constant regions) VH: QVQLVQSGAEVKKPGASVKVSCKASGYTFTSFWLNWVRQAPGQGLEWIGNIYPSTSYTVYNQKFKDRVTLTVDTSTSTVYMELSSLRSEDTAVYYCARTWRGNSFDLWGQGTTVTVSS VL: DIVMTQSPDSLAVSLGERATINCKSNQSLLNSGNQKNYVTWYQQKPGQPPKLLIYWGSTRVRGVPDRFSGSGSGTDFTLTISSLQAEDVAVYYCQNDYTYPFTFGQGTKLEIKR
no binding

Report binding result for 18F2-5VH6VL0 (antibody, human IgG1, kappa, V domains shown, Humanized, human IgG1/kappa constant regions) VH: QVQLVQSGAEVKKPGASVKVSCKASGYTFTSFWLNWVRQRPGQGLEWIGNIYPSTSYTVYNQKFKDRVTLTVDKSSSTAYMELSSLTSEDTAVYYCTRTWRGNSFDLWGQGTTVTVSS VL: DIVMTQSPDSLAVSLGERATINCKSNQSLLNSGNQKNYVTWYQQKPGQPPKLLIYWGSTRVRGVPDRFSGSGSGTDFTLTISSLQAEDVAVYYCQNDYTYPFTFGQGTKLEIKR
no binding

Report binding result for 18F2-30-VH4VL0 (antibody, human IgG1, kappa, V domains shown, Humanized, human IgG1/kappa constant regions) VH: QVQLVQSGAEVKKPGASVKVSCKASGYTFTSFWLNWVRQRPGQGLEWIGNIYPSTSYTVYNQKFKDRVTLTVDKSTSTVYMELSSLRSEDTAVYYCARTWRGNSFDYWGQGTTVTVSS VL: DIVMTQSPDSLAVSLGERATINCKSSQSLLNSGNQKNYVTWYQQKPGQPPKLLIYWGSTRSTGVPDRFSGSGSGTDFTLTISSLQAEDVAVYYCQNDYTYPFTFGQGTKLEIKR
no binding

Now for the binder whose binding result we want.
Report binding result for 18F2-5VH4VL0 (antibody, human IgG1, kappa, V domains shown, Humanized, human IgG1/kappa constant regions) VH: QVQLVQSGAEVKKPGASVKVSCKASGYTFTSFWLNWVRQRPGQGLEWIGNIYPSTSYTVYNQKFKDRVTLTVDKSTSTVYMELSSLRSEDTAVYYCARTWRGNSFDLWGQGTTVTVSS VL: DIVMTQSPDSLAVSLGERATINCKSNQSLLNSGNQKNYVTWYQQKPGQPPKLLIYWGSTRVRGVPDRFSGSGSGTDFTLTISSLQAEDVAVYYCQNDYTYPFTFGQGTKLEIKR
no binding
